# tested on: Endonuclease 8-like 1 (Homo sapiens) (UniProt Q96FI4);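 further: fluorescence at 594 nm from quenched duplex DNA oligonucleotides released by NEIL1 cleavage and strand separation, reported as reduction of this enzyme activity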
# Sequence (Q96FI4 whole entry): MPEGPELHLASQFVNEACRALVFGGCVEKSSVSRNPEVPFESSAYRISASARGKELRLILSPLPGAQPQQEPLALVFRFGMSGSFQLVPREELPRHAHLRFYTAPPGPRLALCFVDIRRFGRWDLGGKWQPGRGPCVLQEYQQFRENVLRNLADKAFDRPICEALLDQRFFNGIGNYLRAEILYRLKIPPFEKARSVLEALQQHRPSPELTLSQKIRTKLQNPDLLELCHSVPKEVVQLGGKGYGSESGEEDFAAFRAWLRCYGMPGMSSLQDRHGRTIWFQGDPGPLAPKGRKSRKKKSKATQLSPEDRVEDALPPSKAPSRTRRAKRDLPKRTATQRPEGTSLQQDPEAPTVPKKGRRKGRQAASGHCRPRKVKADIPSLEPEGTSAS
# condition context: Compound Concentration 10.0 uM, Hit No
Where a SMILES comes first, the peptide text is derived from it.
readout: inhibition (%)
API: value field is a number in %; no unit string.

Past entries and their recorded results:
[[record]]
compound = "Clc1ccc(CCCOCCCN2CCCCC2)cc1"
tested_on = "Endonuclease 8-like 1 (Homo sapiens) (UniProt Q96FI4)"
recorded_measurement = -3.47

[[record]]
compound = "O=C(O)c1ccc2c(c1)nc(Nc1cccc(Cl)c1)c1ccncc12"
tested_on = "Endonuclease 8-like 1 (Homo sapiens) (UniProt Q96FI4)"
recorded_measurement = -4.62

[[record]]
compound = "CC[C@H](CO)Nc1nc(NCc2ccccc2)c2ncn(C(C)C)c2n1"
tested_on = "Endonuclease 8-like 1 (Homo sapiens) (UniProt Q96FI4)"
recorded_measurement = 6.48

[[record]]
compound = "Cc1c(C(=O)NC2CCCCC2)sc2nc3ccc(N)cc3n12"
tested_on = "Endonuclease 8-like 1 (Homo sapiens) (UniProt Q96FI4)"
recorded_measurement = -4.65

[[record]]
compound = "CC[C@H](C)[C@H](NC(=O)[C@H](Cc1ccc(O)cc1)NC(=O)[C@@H](NC(=O)[C@H](CCCNC(=N)N)NC(=O)[C@@H](N)CC(=O)O)C(C)C)C(=O)N[C@@H](Cc1cnc[nH]1)C(=O)N[C@H](C)C(=O)O (HELM PEPTIDE1{D.R.V.Y.I.H.[dA]}$$$$V2.0)"
tested_on = "Endonuclease 8-like 1 (Homo sapiens) (UniProt Q96FI4)"
recorded_measurement = 9.79


// query Sample `CCCCCCCCCCCCC/C=C/[C@@H](O)[C@@H](N)COP(=O)(O)O` — what was its inhibition?
// result 4.69

// query Sample `CC(C)[C@@H]1CC[C@@H](C)C[C@@H]1P(=O)(c1ccccc1)c1ccccc1` — what was its inhibition?
// result -6.96

// query Sample `O=C(O)C1CN(Cc2ccc(-c3nc4cc(Cc5ccccc5F)ccc4s3)c(F)c2)C1` — what was its inhibition?
// result -0.945

// query Sample `COc1cc(-c2cn([C@H]3CCc4c(F)cccc4N(CC(F)(F)F)C3=O)nn2)ccc1-n1cnc(C)c1` — what was its inhibition?
// result -9.83

---

# tested on: DNA-3-methyladenine glycosylase (Homo sapiens);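 further: enzyme assay where MPG cuts a quenched duplex DNA oligonucleotide probe, paired with APE1 for strand incision and turnover, read as fluorescence at 594 nm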
# condition context: Compound Concentration 10.0 uM, Hit No
readout: inhibition (%)
API: value field is a number in %; no unit string.

[[record]]
compound = "N[C@](CC1c2ccccc2Oc2ccccc21)(C(=O)O)[C@H]1C[C@@H]1C(=O)O"
recorded_measurement = 10.3


// query Query inhibition on DNA-3-methyladenine glycosylase (Homo sapiens) for `O=C1CC[C@@]2(O)[C@H]3Cc4ccc(O)c5c4[C@@]2(CCN3CC2CC2)[C@H]1O5`
// result 4.49

// query Query inhibition on DNA-3-methyladenine glycosylase (Homo sapiens) for `FC(F)(F)c1ccc(Nc2ncnc3cc(-c4ncccc4C(F)(F)F)ccc23)cc1`
// result 12.8

// query Query inhibition on DNA-3-methyladenine glycosylase (Homo sapiens) for `CCCN(CCc1cccs1)[C@H]1CCc2c(O)cccc2C1`
// result 14.7

// query Query inhibition on DNA-3-methyladenine glycosylase (Homo sapiens) for `COc1ccc(CCCN2CCC(COC(c3ccccc3)c3ccccc3)CC2)cc1`
// result 47.2

// query Query inhibition on DNA-3-methyladenine glycosylase (Homo sapiens) for `COc1ccc(-c2csc(NC(=O)[C@H]3CCCCN3S(=O)(=O)c3ccc(C)cc3)n2)cc1`
// result 12

// query Query inhibition on DNA-3-methyladenine glycosylase (Homo sapiens) for `COc1cc(Br)c(S(=O)(=O)Nc2ccc(C(F)(F)F)c(O[C@@H]3CCN(C)C3)c2)cc1OC`
// result -9.93

// query Query inhibition on DNA-3-methyladenine glycosylase (Homo sapiens) for `O=C(NNC(=O)c1ccc(CNS(=O)(=O)c2ccc(F)c(Cl)c2)cc1)c1ccccc1`
// result 9.45
